Items are presented alongside their recorded R^1 Plasma (relaxivity).
Experiment: proton relaxivity in plasma (R^1), Minispec P 20
Assay type: physicochemical
Details: 40° C., 0.47 tesla, bovine plasma
Form entry: enter the amount, then its unit.

CC(C(=O)NCC(=O)N(CCOCCC(F)(F)C(F)(F)C(F)(F)C(F)(F)C(F)(F)C(F)(F)C(F)(F)C(F)(F)F)CC(O)CO)N1CCN(CC(=O)[O-])CCN(CC(=O)[O-])CCN(CC(=O)[O-])CC1.[Gd+3] (stereo not drawn) [metal complex V] | 19.6 mmol⁻¹ s⁻¹

For the molecule O=C([O-])CN1CCN(CC(=O)[O-])CCN(CC(O)COCCC(F)(F)C(F)(F)C(F)(F)C(F)(F)C(F)(F)C(F)(F)C(F)(F)C(F)(F)F)CCN(CC(=O)[O-])CC1.[Gd+3] (stereo not drawn) [metal complex VI] , give its reported R^1 Plasma (relaxivity).
27.5 mmol⁻¹ s⁻¹

Using the record for CC(C(=O)NCC(=O)N(CCOCCO)CCOCCC(F)(F)C(F)(F)C(F)(F)C(F)(F)C(F)(F)C(F)(F)C(F)(F)C(F)(F)F)N1CCN(CC(=O)[O-])CCN(CC(=O)[O-])CCN(CC(=O)[O-])CC1.[Gd+3] (stereo not drawn) [metal complex VIII] , state its measured R^1 Plasma (relaxivity).
21.2 mmol⁻¹ s⁻¹

---

Tested on: iliac lymph nodes
Experiment: lymph node visualization (MRT) after intravenous administration in VX2-tumor-bearing rabbits
Format: in vivo
Settings: 60 minutes p.i.; 200 μmol of Gd/kg i.v.
Readings of ratio of signal intensities of healthy lymph node tissue to metastasis for the listed molecules
Respond numerically, and do not add a unit to the figure.

Below: 3 molecules and their reported ratio of signal intensities of healthy lymph node tissue to metastasis.
COCCN(CCOCCC(F)(F)C(F)(F)C(F)(F)C(F)(F)C(F)(F)C(F)(F)C(F)(F)C(F)(F)F)C(=O)CNC(=O)C(C)N1CCN(CC(=O)[O-])CCN(CC(=O)[O-])CCN(CC(=O)[O-])CC1.[Gd+3] (stereo not shown) [metal complex X] | 3.4
CC(C(=O)NCC(=O)N(CCOCCC(F)(F)C(F)(F)C(F)(F)C(F)(F)C(F)(F)C(F)(F)C(F)(F)C(F)(F)F)CC(O)CO)N1CCN(CC(=O)[O-])CCN(CC(=O)[O-])CCN(CC(=O)[O-])CC1.[Gd+3] (stereo not shown) [metal complex V] | 1.7
O=C([O-])CN1CCN(CC(=O)[O-])CCN(CC(O)CNC(=O)CCCC(=O)N2CCN(C(F)(F)C(F)(F)C(F)(F)C(F)(F)C(F)(F)C(F)(F)C(F)(F)C(F)(F)F)CC2)CCN(CC(=O)[O-])CC1.[Gd+3] (stereo not shown) [metal complex III] | 1.8

Note: attention shifts to another entry.
Identify measured ratio of signal intensities of healthy lymph node tissue to metastasis associated with CC(C(=O)NCC(=O)NCC(=O)N1CCN(C(=O)CNC(=O)CNC(=O)C(C)N2CCN(CC(=O)[O-])CCN(CC(=O)[O-])CCN(CC(=O)[O-])CC2)CCN(C(=O)COCCC(F)(F)C(F)(F)C(F)(F)C(F)(F)C(F)(F)C(F)(F)C(F)(F)C(F)(F)F)CCN(C(=O)CNC(=O)CNC(=O)C(C)N2CCN(CC(=O)[O-])CCN(CC(=O)[O-])CCN(CC(=O)[O-])CC2)CC1)N1CCN(CC(=O)[O-])CCN(CC(=O)[O-])CCN(CC(=O)[O-])CC1.[Gd+3].[Gd+3].[Gd+3] (stereo not shown) [metal complex XIV]
1.9

---

Assay: critical micelle formation concentration (CMC) by tensiometry
Type: physicochemical
Protocol: In aqueous systems, these amphiphilic molecules show the properties that are characteristic of standard surfactants (such as, e.g., sodium dodecylsulfate, SDS). They thus reduce the surface tension of water. By tensiometry, the so-called CMC (critical micelle formation concentration in mol/l) can be determined. In this respect, the surface tension is determined based on the concentration of the substance to be measured. […]
metric: CMC (critical micelle formation concentration) (mol/L)
Unit mol/L implied. Number only.

CC(C(=O)NCC(=O)NCC(=O)N1CCN(C(=O)CNC(=O)CNC(=O)C(C)N2CCN(CC(=O)[O-])CCN(CC(=O)[O-])CCN(CC(=O)[O-])CC2)CCN(C(=O)COCCC(F)(F)C(F)(F)C(F)(F)C(F)(F)C(F)(F)C(F)(F)C(F)(F)C(F)(F)F)CCN(C(=O)CNC(=O)CNC(=O)C(C)N2CCN(CC(=O)[O-])CCN(CC(=O)[O-])CCN(CC(=O)[O-])CC2)CC1)N1CCN(CC(=O)[O-])CCN(CC(=O)[O-])CCN(CC(=O)[O-])CC1.[Gd+3].[Gd+3].[Gd+3] (stereo not shown) [metal complex XIV] | 0.00089

Provide CMC (critical micelle formation concentration) value for the following compound: CC(C(=O)NCC(=O)NCCOCCOCCOCCCNC(=O)COCCC(F)(F)C(F)(F)C(F)(F)C(F)(F)C(F)(F)C(F)(F)C(F)(F)C(F)(F)F)N1CCN(CC(=O)[O-])CCN(CC(=O)[O-])CCN(CC(=O)[O-])CC1.[Gd+3] (stereo not shown) [metal complex IX]
2.65e-06

Read the entry CC(C(=O)NCC(=O)N1CCN(S(=O)(=O)C(F)(F)C(F)(F)C(F)(F)C(F)(F)C(F)(F)C(F)(F)C(F)(F)C(F)(F)F)CC1)N1CCN(CC(=O)[O-])CCN(CC(=O)[O-])CCN(CC(=O)[O-])CC1.[Gd+3] (stereo not shown) [metal complex I] and write its reported CMC (critical micelle formation concentration).
1.86e-06

Return value of CMC (critical micelle formation concentration) for input CC(C(=O)NCC(=O)N(CCOCCO)CCOCCC(F)(F)C(F)(F)C(F)(F)C(F)(F)C(F)(F)C(F)(F)C(F)(F)C(F)(F)F)N1CCN(CC(=O)[O-])CCN(CC(=O)[O-])CCN(CC(=O)[O-])CC1.[Gd+3] (stereo not shown) [metal complex VIII] , no commentary.
2.92e-05

---

Test: proton relaxivity in plasma (R^1), Minispec P 20
Format: physicochemical
Conditions: 40° C., 0.47 tesla, bovine plasma
Here, each record is paired with measured R^1 Plasma (relaxivity) data.
Supply the numeric figure in mmol⁻¹ s⁻¹, leaving out any unit text.

COCCN(CCOCCC(F)(F)C(F)(F)C(F)(F)C(F)(F)C(F)(F)C(F)(F)C(F)(F)C(F)(F)F)C(=O)CNC(=O)C(C)N1CCN(CC(=O)[O-])CCN(CC(=O)[O-])CCN(CC(=O)[O-])CC1.[Gd+3] (stereo not shown) [metal complex X] | 25.7
O=C([O-])CN1CCN(CC(=O)[O-])CCN(CC(O)CNC(=O)COCCC(F)(F)C(F)(F)C(F)(F)C(F)(F)C(F)(F)C(F)(F)C(F)(F)C(F)(F)F)CCN(CC(=O)[O-])CC1.[Gd+3] (stereo not shown) [metal complex II] | 33
CCN(CC(=O)NCC(O)CN1CCN(CC(=O)[O-])CCN(CC(=O)[O-])CCN(CC(=O)[O-])CC1)S(=O)(=O)C(F)(F)C(F)(F)C(F)(F)C(F)(F)C(F)(F)C(F)(F)C(F)(F)C(F)(F)F.[Gd+3] (stereo not shown) [metal complex IV] | 29.7

Now look at this entry.
Look up and report measured R^1 Plasma (relaxivity) for this entry: O=C([O-])CN1CCN(CC(=O)[O-])CCN(CC(O)CNC(=O)CCCC(=O)N2CCN(C(F)(F)C(F)(F)C(F)(F)C(F)(F)C(F)(F)C(F)(F)C(F)(F)C(F)(F)F)CC2)CCN(CC(=O)[O-])CC1.[Gd+3] (stereo not shown) [metal complex III]
24.9

---

Test: hydrodynamic micelle diameter (2 Rh) by photon correlation spectroscopy (PCS)
Assay type: physicochemical
Classify: label 1 when 2 Rh (hydrodynamic micelle diameter) is strictly less than 3 nm; label 0 when 2 Rh (hydrodynamic micelle diameter) is not.

Reference set, count: 5
CC(C(=O)NCC(=O)NCCOCCOCCOCCCNC(=O)COCCC(F)(F)C(F)(F)C(F)(F)C(F)(F)C(F)(F)C(F)(F)C(F)(F)C(F)(F)F)N1CCN(CC(=O)[O-])CCN(CC(=O)[O-])CCN(CC(=O)[O-])CC1.[Gd+3] (stereo not shown) [metal complex IX] | label 0
O=C([O-])CN1CCN(CC(=O)[O-])CCN(CC(O)COCCC(F)(F)C(F)(F)C(F)(F)C(F)(F)C(F)(F)C(F)(F)C(F)(F)C(F)(F)F)CCN(CC(=O)[O-])CC1.[Gd+3] (stereo not shown) [metal complex VI] | label 0
CC(C(=O)NCC(=O)NCC(=O)N1CCN(C(=O)CNC(=O)CNC(=O)C(C)N2CCN(CC(=O)[O-])CCN(CC(=O)[O-])CCN(CC(=O)[O-])CC2)CCN(C(=O)COCCC(F)(F)C(F)(F)C(F)(F)C(F)(F)C(F)(F)C(F)(F)C(F)(F)C(F)(F)F)CCN(C(=O)CNC(=O)CNC(=O)C(C)N2CCN(CC(=O)[O-])CCN(CC(=O)[O-])CCN(CC(=O)[O-])CC2)CC1)N1CCN(CC(=O)[O-])CCN(CC(=O)[O-])CCN(CC(=O)[O-])CC1.[Gd+3].[Gd+3].[Gd+3] (stereo not shown) [metal complex XIV] | label 1
O=C([O-])CN1CCN(CC(=O)[O-])CCN(CC(O)CNC(=O)COCCC(F)(F)C(F)(F)C(F)(F)C(F)(F)C(F)(F)C(F)(F)C(F)(F)C(F)(F)F)CCN(CC(=O)[O-])CC1.[Gd+3] (stereo not shown) [metal complex II] | label 0
CC(C(=O)NCC(=O)NCCCC[C@H](NC(=O)CO[C@H]1O[C@H](CO)[C@@H](O)[C@H](O)[C@@H]1O)C(=O)N1CCN(S(=O)(=O)C(F)(F)C(F)(F)C(F)(F)C(F)(F)C(F)(F)C(F)(F)C(F)(F)C(F)(F)F)CC1)N1CCN(CC(=O)[O-])CCN(CC(=O)[O-])CCN(CC(=O)[O-])CC1.[Gd+3] (stereo partly shown) [metal complex XV] | label 0

Next, consider the following molecule.
Threshold test, 2 Rh (hydrodynamic micelle diameter) < 3 nm: CC(C(=O)NCC(=O)N1CCN(S(=O)(=O)C(F)(F)C(F)(F)C(F)(F)C(F)(F)C(F)(F)C(F)(F)C(F)(F)C(F)(F)F)CC1)N1CCN(CC(=O)[O-])CCN(CC(=O)[O-])CCN(CC(=O)[O-])CC1.[Gd+3] (stereo not shown) [metal complex I]
label 0
